Reference for the values: patent US20170267766A1

assayed.target: T1, human IGF-1R (native, on cells) (human, UniProt P08069 31-1367)
T1 construct: also called hIGF-1R; native IGF-1R on MCF-7 cells
test.summary: FACS, MCF7, 4°C, Ab 5 ug/ml
Method: Additionally an internalization assay was performed in order to select only internalizing antibodies. For this assay, the MCF7 tumor cell line was cultured in RMPI 1640 without phenol red with 1% L-glutamine and 10% of […] for 3 days before experiment. Cells were then detached using trypsin and 100 μl of a cell suspension at 4·10⁵ cell/ml are plated in 96-multiwell plates in RPMI1640 without phenol red with 1% L-glutamine and 5% FBS. […]
Recorded MFI 4°C values for a group of binders are listed next.

{"columns": ["binder", "display.unit", "MFI 4°C"],
 "data": [
  ["m219D6 (antibody, V domains shown, murine mAb, hybridoma CNCM I-4736, group G2) VH: QVQLQQSGPELVKPGDSVKMSCKASGYSFTSYFIHWVKQRPGQGLEWIGWIWPGDGSTKYNEKFKGKTTLTTDKSSSTAYMFLNSLTSEDSAVYFCASPMITPNYAMDYWGQGASVTVSS VL: DIQMTQTTSSLSASLGDRVTISCRASQDISKYLNWYQQQPDGTVKLLIYYTSRLHSGVPSRFSGRGSGTDYSLTISNLEQEDIATYFCQQGSTLPYTFGGGTKLEIK", "MFI", 349],
  ["m213B10 (antibody, V domains shown, murine mAb, hybridoma CNCM I-4774, group G2) VH: QVQLQQSGSELVKPGASVKMSCKASGYTFTSYYIHWVKQRPGQGLEWIGWIWPGDGSTKYNERFKGKTTLTADKSSSTAYMFLSSLTSEDSAVYFCASPMITPNYAMDYWGQGASVTVSS VL: DIQMTQTTSSLSASLGDRVTISCRASQDISKYLNWYQQQPDGTIKLLIYYTSRLHSGVPSRFSGRGSGTDYSLTITNLEQEDIATYFCQQGSALPYTFGGGTKLEIK", "MFI", 386],
  ["m208F2 (antibody, V domains shown, murine mAb, hybridoma CNCM I-4757, group G2; also called murine 208F2) VH: QVQLQQSGPELVKPGASVKMSCKASGYTFTSYYIYWVKQRPGQGLEWLGWIWPGDGSTKYNEKFKDKTTLTADKSSNTAYMFLSSLTSEDSAVYFCASPMITPNYAMDYWGQGASVTVSS VL: DIQMTQTTSSLSASLGDRVTISCRASQDISKYLNWYQQQPDGTIKLLIYYTSRLHSGVPSRFSGRGSGTDYSLTISNVEQEDIATYFCQQGSTLPYTFGGGTKLEIK", "MFI", 355],
  ["m214F8 (antibody, V domains shown, murine mAb, hybridoma CNCM I-4775, group G2) VH: QVQLQQSGSELVKPGASVKLSCKASGYTFTSYYIHWVKQRPGQGLEWIGWIWPGDGSTKYNERFKGKTTLTADKSSSTAYMFLSSLTSEDSAVYFCASPMITPNYAMDYWGQGASVTVSS VL: DIQMTQTTSSLSASLGDRVTFSCRASQDISKYLNWYQQQPDGTIKLLIYYTSRLHSGVPSRFSGRGSGTDYSLTITNLEQEDIATYFCQQGSALPYTFGGGTKLEIK", "MFI", 386],
  ["m212A11 (antibody, V domains shown, murine mAb, hybridoma CNCM I-4773, group G2) VH: QVQLQQSGPELVKPGASVKMSCKASGYTFTSYYIHWVKQRPGQGLEWIGWIWPGDGSTKYNEKFKGKTTLTADKSSSTAYMFLSSLTSEDSAVYFCASPMITPNYAMDYWGQGASVTVSS VL: DIQMTQTTSSLSASLGDRVTISCRASQDINKYLNWYQQQPDGTVKLLIYYTSRLHSGVPSRFSGRGSGTDYSLTISNLEQEDIATYFCQQGSTLPYTFGGGTKLEIK", "MFI", 390]
]}
